- Measured on: PI3K α (Homo sapiens (Human), UniProt P42336)
- Sequence (P42336 whole entry): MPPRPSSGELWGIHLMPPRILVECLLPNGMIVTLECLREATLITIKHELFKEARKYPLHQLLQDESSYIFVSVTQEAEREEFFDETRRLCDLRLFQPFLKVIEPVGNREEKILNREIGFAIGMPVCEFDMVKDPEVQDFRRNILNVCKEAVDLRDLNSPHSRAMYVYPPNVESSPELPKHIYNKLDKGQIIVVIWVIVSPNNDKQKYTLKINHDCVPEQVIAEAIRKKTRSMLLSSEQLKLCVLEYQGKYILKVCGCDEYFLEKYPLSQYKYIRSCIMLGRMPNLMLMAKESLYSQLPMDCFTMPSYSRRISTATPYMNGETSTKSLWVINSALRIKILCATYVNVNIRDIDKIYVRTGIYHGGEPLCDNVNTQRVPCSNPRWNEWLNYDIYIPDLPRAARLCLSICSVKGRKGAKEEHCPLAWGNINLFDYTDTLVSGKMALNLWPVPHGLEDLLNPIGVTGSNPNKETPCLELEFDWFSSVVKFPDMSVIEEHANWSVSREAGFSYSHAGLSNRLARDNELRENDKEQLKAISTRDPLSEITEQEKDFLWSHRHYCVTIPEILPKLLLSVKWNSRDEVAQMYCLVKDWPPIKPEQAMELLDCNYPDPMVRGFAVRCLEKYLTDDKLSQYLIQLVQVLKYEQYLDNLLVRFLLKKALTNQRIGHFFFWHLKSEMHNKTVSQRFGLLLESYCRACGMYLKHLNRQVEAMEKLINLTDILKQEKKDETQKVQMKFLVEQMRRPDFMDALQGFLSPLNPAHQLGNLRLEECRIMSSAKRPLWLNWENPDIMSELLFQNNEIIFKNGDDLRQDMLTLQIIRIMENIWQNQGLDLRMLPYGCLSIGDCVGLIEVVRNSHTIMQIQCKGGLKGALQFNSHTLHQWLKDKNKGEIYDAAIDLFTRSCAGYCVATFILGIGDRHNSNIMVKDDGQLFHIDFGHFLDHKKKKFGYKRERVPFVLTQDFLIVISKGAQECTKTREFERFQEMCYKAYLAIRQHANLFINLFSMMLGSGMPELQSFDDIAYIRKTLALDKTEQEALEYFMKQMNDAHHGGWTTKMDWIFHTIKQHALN
- Sequence (P27986 whole entry partner): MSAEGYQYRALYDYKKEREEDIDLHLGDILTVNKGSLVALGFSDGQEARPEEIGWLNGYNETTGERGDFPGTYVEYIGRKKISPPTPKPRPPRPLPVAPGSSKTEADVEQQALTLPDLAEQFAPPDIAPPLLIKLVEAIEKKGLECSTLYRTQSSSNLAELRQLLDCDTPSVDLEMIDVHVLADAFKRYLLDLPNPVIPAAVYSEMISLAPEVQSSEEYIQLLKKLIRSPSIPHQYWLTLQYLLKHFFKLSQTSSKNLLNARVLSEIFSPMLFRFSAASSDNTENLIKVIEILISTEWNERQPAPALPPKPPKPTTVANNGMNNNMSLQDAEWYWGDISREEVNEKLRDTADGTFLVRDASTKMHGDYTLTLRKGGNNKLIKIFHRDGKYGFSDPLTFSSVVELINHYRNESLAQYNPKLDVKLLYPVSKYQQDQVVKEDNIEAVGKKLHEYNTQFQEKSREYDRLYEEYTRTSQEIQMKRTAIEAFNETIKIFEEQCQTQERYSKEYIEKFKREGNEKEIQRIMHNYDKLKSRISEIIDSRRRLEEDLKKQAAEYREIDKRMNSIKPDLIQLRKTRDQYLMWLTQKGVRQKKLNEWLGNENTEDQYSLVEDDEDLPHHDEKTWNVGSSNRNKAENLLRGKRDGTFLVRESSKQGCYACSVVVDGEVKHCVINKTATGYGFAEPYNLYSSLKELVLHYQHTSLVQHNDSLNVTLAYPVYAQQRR
- Assay protocol: PI 3-Kinase (human) HTRF assay, p110α/p85α
- Assay type: biochemical
pIC50: −log10 of the molar value.
Measure name: pIC50

Example molecules with recorded pIC50:
Nc1nc2cc(-c3ccc4ncc(-c5ccc6nc(N)oc6c5)n4c3)ccc2o1: > 7.00
Cc1nccn1C1CN(c2cnc3ccc(-c4ccc5oc(N)nc5c4)nc3c2)C1: > 7.00
COc1ccc(CNc2n[nH]c3cc(-c4ccc5oc(N)nc5c4)ccc23)cc1: < 5.00

# input Suppose we examine the molecule `Nc1nc2cc(-c3ccc4ncc(-c5ccnc(N6CCOCC6)c5)n4c3)ccc2o1` ; what pIC50 value has been reported?
# output > 7.00

# input Then what about the molecule `Nc1nc2cc(-c3ccc4ncc(C(=O)N5CCOCC5)n4c3)cc(Cl)c2o1` ?
# output > 7.00

# input Ok, now `Nc1ncc(-c2cnc3ccc(-c4ccc5oc(N)nc5c4)cc3n2)cn1`
# output > 6.00

# input Then `Nc1nc2cc(-c3ccc4ncc(C(=O)N(CCO)CCO)n4c3)ccc2o1` ?
# output > 6.00

# input Another molecule to look at: `CCN(CC)CCCNC(=O)c1cnc2ccc(-c3ccc4oc(N)nc4c3)cn12`
# output > 6.00

# input Also, `NCC(=O)N1CCN(c2cnc3ccc(-c4ccc5oc(N)nc5c4)nc3n2)CC1` please.
# output > 7.00
